I'd be grateful if you could share measured PBM E-score for these entries.
- MEASUREMENT_TARGET: Ecm22 (UniProt Q05958)
- Sequence: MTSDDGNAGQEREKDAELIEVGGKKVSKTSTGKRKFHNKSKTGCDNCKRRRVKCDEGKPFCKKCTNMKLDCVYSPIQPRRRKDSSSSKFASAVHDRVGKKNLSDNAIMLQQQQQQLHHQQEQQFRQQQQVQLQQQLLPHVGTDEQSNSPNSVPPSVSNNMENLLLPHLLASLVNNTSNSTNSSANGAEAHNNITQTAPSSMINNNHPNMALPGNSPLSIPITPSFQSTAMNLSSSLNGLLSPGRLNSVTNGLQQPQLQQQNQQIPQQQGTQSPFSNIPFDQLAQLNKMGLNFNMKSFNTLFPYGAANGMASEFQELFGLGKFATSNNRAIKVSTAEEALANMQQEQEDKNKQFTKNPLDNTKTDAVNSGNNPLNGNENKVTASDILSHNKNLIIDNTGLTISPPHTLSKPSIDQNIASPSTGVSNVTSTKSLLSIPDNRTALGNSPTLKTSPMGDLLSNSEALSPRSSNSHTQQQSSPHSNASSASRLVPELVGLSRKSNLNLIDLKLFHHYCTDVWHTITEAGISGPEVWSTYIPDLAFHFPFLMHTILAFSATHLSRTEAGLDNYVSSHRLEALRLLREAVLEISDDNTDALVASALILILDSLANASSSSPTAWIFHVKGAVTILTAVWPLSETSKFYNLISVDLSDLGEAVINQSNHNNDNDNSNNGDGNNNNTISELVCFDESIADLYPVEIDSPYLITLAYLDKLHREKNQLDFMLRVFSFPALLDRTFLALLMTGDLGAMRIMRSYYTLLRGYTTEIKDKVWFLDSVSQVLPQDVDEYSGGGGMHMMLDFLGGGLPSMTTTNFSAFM
- TEST_NAME: PBM E-score (8-mer binding enrichment) (E-score (-0.5 to 0.5)); higher = stronger / more preferred TF binding
- TEST_CONDITIONS: protein concentration: 200 nM; construct: GST-full length
In all, about 33,000 sequences were measured (“E-score (-0.5 to 0.5)”: median about -0.041, highest 2% from about 0.37 on). Only a selection was taken, and the highest values are over-represented in it overall.
Note: the reply should be a number with no unit written.

Lookup: For the sequence shown here, CCACTTCC , give the reported PBM E-score.
Found: 0.0365

Lookup: For the sequence shown here, CCGAGGCA , give the reported PBM E-score.
Found: 0.0444

Lookup: For the sequence shown here, GGCGTAGA , give the reported PBM E-score.
Found: 0.0225

Lookup: For the sequence shown here, ACGAGGCC , give the reported PBM E-score.
Found: 0.376

Lookup: For the sequence shown here, CTTGTGTC , give the reported PBM E-score.
Found: -0.0755

Lookup: For the sequence shown here, GACGTAGA , give the reported PBM E-score.
Found: -0.0256

Lookup: For the sequence shown here, AGGAGGCG , give the reported PBM E-score.
Found: -0.229

Lookup: For the sequence shown here, CACGTAGA , give the reported PBM E-score.
Found: -0.0914

Lookup: For the sequence shown here, CCGCTATC , give the reported PBM E-score.
Found: 0.0478

Lookup: For the sequence shown here, AGGCCCCA , give the reported PBM E-score.
Found: -0.182

Lookup: For the sequence shown here, AATGTCCG , give the reported PBM E-score.
Found: 0.127

From: the supplement of paper PMC3334620
